Target Desc: UniProtKB P51531
Assay Overview: SMARCA2 Western blot degradation in MV4-11 cells
Type: cell-based
Design: SMARCA2/SMARCA4 protein degradation selectivity in MV4-11 cells; endogenous in cells; host or cells: MV4-11
Applied Conditions: MV4-11, MV4-11 cells, 24 h; read-out: SMARCA2 MSD MV411 degradation 24 h: average Dmax %
Readout Type: Dmax

>>> observed_result("C#Cc1ccc(CNC(=O)[C@@H]2C[C@@H](O)CN2C(=O)[C@@H](NC(=O)N2CC3(CC(N4C[C@H]5CN(c6cnc(N7CCc8[nH]c9nnc(-c%10ccccc%10O)cc9c8[C@@H]7C)nc6)C[C@H]5C4)C3)C2)C(C)(C)C)cc1")
"50 to 70%"
>>> observed_result("Cc1ncsc1-c1ccc(CNC(=O)[C@@H]2C[C@@H](O)CN2C(=O)[C@@H](c2cc(N3CC4(CC(N5CCC(c6cnc(N7CCN8c9cc(-c%10ccccc%10O)nnc9NC[C@H]8C7)nc6)CC5)C4)C3)no2)C(C)C)cc1 (single isomer, unassigned)")
"> 90%"
>>> observed_result("C#Cc1ccc(CNC(=O)[C@@H]2C[C@@H](O)CN2C(=O)[C@@H](NC(=O)N2CC3(CC(N4CCC(c5cnc(N6CCc7[nH]c8nnc(-c9ccccc9O)cc8c7[C@H]6C)nc5)CC4)C3)C2)C(C)(C)CCN2CCN[C@@H](C(=O)O)C2)cc1")
"< 50%"
>>> observed_result("CC#Cc1ccc(CNC(=O)[C@@H]2C[C@@H](O)CN2C(=O)[C@@H](NC(=O)N2CC3(CC(N4CCC(c5cnc(N6CCc7[nH]c8nnc(-c9ccccc9O)cc8c7[C@H]6C)nc5)CC4)C3)C2)C(C)(C)C)cc1")
"50 to 70%"
>>> observed_result("Cc1ncsc1-c1ccc(CNC(=O)[C@@H]2C[C@@H](O)CN2C(=O)C(c2cc(OC[C@H]3CC[C@H](N4CCC(c5cnc(N6CCc7[nH]c8nnc(-c9ccccc9O)cc8c7[C@H]6C)nc5)CC4)CC3)no2)C(C)C)cc1 (single isomer, unassigned)")
"> 90%"
>>> observed_result("C#Cc1ccc(CNC(=O)[C@@H]2C[C@@H](O)CN2C(=O)[C@@H](NC(=O)N2CC3(CC(N4CCC(c5cnc(N6CCN7c8cc(-c9ccccc9O)nnc8NC[C@H]7C6)nc5)CC4)C3)C2)C(C)(C)C)cc1")
"> 90%"
>>> observed_result("C#Cc1cnc(CNC(=O)[C@@H]2C[C@@H](O)CN2C(=O)C(c2cc(OCCN3CCC(N4CCC(N5CCC(CN6CCN7c8cc(-c9ccccc9O)nnc8NC[C@H]7C6)CC5)CC4)CC3)no2)C(C)C)c(OC)c1 (some centres unmarked)")
"70 to 90%"
>>> observed_result("C#Cc1ccc(CNC(=O)[C@@H]2C[C@@H](O)CN2C(=O)[C@@H](NC(=O)[C@H]2CC3(C2)C[C@H](N2CCC(N4CCC(N5CCN6c7cc(-c8ccccc8O)nnc7NC[C@H]6C5)CC4)CC2)C3)C(C)(C)C)cc1 (single isomer, unassigned)")
"70 to 90%"

* * *

Target Desc: SMARCA2 (Homo sapiens)
Sequence (P51531 whole entry): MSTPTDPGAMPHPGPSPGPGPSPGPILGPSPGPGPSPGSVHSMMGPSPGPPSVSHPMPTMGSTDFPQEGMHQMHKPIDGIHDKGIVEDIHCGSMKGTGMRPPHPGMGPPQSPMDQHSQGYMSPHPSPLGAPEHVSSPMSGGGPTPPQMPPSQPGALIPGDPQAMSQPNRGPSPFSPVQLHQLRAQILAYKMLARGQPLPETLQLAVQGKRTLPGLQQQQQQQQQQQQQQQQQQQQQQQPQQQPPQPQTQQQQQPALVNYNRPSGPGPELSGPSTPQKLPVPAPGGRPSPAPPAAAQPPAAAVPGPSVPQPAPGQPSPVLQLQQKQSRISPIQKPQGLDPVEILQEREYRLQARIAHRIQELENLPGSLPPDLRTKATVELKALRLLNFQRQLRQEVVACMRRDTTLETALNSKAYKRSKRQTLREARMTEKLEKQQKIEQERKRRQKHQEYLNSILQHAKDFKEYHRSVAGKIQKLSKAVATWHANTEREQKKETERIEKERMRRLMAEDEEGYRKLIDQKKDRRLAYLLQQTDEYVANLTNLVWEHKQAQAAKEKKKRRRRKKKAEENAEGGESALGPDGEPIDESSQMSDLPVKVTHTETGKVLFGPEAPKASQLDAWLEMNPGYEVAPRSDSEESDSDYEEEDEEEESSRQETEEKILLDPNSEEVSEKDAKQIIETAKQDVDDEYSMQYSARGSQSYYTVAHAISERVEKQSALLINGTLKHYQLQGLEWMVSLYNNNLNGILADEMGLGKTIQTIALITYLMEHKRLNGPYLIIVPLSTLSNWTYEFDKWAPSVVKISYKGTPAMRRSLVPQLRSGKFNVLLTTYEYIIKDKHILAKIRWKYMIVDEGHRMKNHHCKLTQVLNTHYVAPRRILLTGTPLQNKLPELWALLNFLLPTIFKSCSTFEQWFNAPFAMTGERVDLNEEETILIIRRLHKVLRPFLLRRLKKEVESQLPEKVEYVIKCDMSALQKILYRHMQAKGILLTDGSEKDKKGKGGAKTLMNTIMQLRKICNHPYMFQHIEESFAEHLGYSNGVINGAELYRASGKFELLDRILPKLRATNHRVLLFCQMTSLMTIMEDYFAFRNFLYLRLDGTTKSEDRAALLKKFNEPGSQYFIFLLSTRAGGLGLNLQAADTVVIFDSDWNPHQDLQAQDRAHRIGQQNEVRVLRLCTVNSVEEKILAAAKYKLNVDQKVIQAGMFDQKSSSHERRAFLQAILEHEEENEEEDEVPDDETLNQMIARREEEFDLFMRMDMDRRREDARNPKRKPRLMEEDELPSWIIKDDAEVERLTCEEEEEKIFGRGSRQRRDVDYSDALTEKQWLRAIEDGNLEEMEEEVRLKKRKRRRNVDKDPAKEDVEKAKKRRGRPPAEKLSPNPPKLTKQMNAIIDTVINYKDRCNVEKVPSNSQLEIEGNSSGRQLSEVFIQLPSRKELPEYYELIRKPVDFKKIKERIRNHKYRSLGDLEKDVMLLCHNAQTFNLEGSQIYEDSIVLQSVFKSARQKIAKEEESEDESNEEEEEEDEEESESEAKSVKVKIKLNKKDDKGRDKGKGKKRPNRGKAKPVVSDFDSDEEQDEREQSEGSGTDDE
Assay Overview: SMARCA2 Western blot degradation in MV4-11 cells
Type: cell-based
Design: SMARCA2/SMARCA4 protein degradation selectivity in MV4-11 cells; endogenous in cells; host or cells: MV4-11
Applied Conditions: SMARCA2/4 selectivity, MV4-11 cells
Readout Type: Selectivity in MV411

>>> observed_result("C#Cc1ccc(CNC(=O)[C@@H]2C[C@@H](O)CN2C(=O)[C@@H](NC(=O)CN2CCC(N3CC4(CC(N5CCN6c7cc(-c8ccccc8O)nnc7NC[C@H]6C5)C4)C3)CC2)C(C)(C)C)cc1 [I-252]")
"D (D (<10 fold))"
>>> observed_result("C#Cc1ccc(CNC(=O)[C@@H]2C[C@@H](O)CN2C(=O)[C@@H](NC(=O)N2CC3(CC(N4CCC(N5CCC(N6CCc7[nH]c8nnc(-c9ccccc9O)cc8c7[C@H]6C)C5)CC4)C3)C2)C(C)(C)C)cc1 (mixture of isomers) [I-188]")
"C (C (10-100 fold))"
>>> observed_result("Cc1ncsc1-c1ccc(CNC(=O)[C@@H]2C[C@@H](O)CN2C(=O)C(c2cc(OC[C@H]3CC[C@H](N4CCC(c5cnc(N6CCc7[nH]c8nnc(-c9ccccc9O)cc8c7[C@H]6C)nc5)CC4)CC3)no2)C(C)C)cc1 (single isomer, unassigned) [I-1]")
"D (D (<10 fold))"
>>> observed_result("C#Cc1ccc2c(c1)OCC[C@H]2NC(=O)[C@@H]1C[C@@H](O)CN1C(=O)[C@@H](NC(=O)N1CC2(CC(N3CCC(c4cnc(N5CCc6[nH]c7nnc(-c8ccccc8O)cc7c6[C@H]5C)nc4)CC3)C2)C1)C(C)(C)C (single isomer, unassigned) [I-236]")
"D (D (<10 fold))"
>>> observed_result("C#Cc1ccc(CNC(=O)[C@@H]2C[C@@H](O)CN2C(=O)[C@@H](NC(=O)[C@H]2CCC3(CC2)C[C@H](N2CCC(N4CC5(CC(N6CCN7c8cc(-c9ccccc9O)nnc8NC[C@H]7C6)C5)C4)CC2)C3)C(C)(C)C)cc1 (single isomer, unassigned) [I-223]")
"C (C (10-100 fold))"
>>> observed_result("C#Cc1ccc(CNC(=O)[C@@H]2C[C@@H](O)CN2C(=O)[C@@H](NC(=O)C2CCC3(CC2)CC(N2CCC(N4CC(C(=O)N5CCN6c7cc(-c8ccccc8O)nnc7NC[C@H]6C5)C4)CC2)C3)C(C)(C)C)cc1 (some centres unmarked) [I-92]")
"C (C (10-100 fold))"
>>> observed_result("COc1cc(C(C(=O)N2C[C@H](O)C[C@H]2C(=O)NCC#Cc2ccccc2OCCCCN2CCC(c3cnc(N4CCN5c6cc(-c7ccccc7O)nnc6NC[C@H]5C4)nc3)CC2)C(C)C)on1 (some centres unmarked) [I-74]")
"C (C (10-100 fold))"

Ref: patent US20250170248A1
